- measured_on: T1, AF6 PDZ binding peptide biotin-SGDDGDDPFLQYEFYV-COOH (SMILES …)
- T1 peptide: Biotin-SGDDGDDPFLQYEFYV-OH
- assay_method_text: peptide binding ELISA: GST-PDZ on plate, biotin-peptide/streptavidin-alkaline phosphatase complex, colorimetric
* marks the point of attachment. Biotin = O=C1N[C@H]2[C@H](CS[C@H]2CCCCC(=O)*)N1
reported_metric: log10 A405 (log10 of the value in A405)
Please be aware that the numbers have been log10-transformed from A405 in A405.

Query: log10 A405; subject: GST fusion of MMSC1 PDZ domain 8 (amino acids 1436-1518) (other, Expressed in E. coli, purified on glutathione-agarose, adsorbed to the ELISA plate; GST is placed N-terminal as in pGEX vectors; also called MMSc1 PDZ 8; PDZ domain number 8; not shown: glutathione S-transferase (GST) encoded by pGEX vectors (Pharmacia)) MIIEISKGRSGLGLSIVGGKDTPLNAIVIHEVYEEGAAARDGRLWAGDQILEVNGVDLRNSSHEEAITALRQTPQKVRLVVYR
Response: -0.54

Query: Consider the binder GST fusion of MMSC1 PDZ domain 6 (amino acids 1067-1158) (other, Expressed in E. coli, purified on glutathione-agarose, adsorbed to the ELISA plate; GST is placed N-terminal as in pGEX vectors; also called MMSc1 PDZ 6; PDZ domain number 6; not shown: glutathione S-transferase (GST) encoded by pGEX vectors (Pharmacia)) RIVEIFREPNVSLGISIVGGQTVIKRLKNGEELKGIFIKQVLEDSPAGKTNALKTGDKILEVSGVDLQNASHSEAVEAIKNAGNPVVFIVQS and give its measured log10 A405.
Response: 0.16

Query: Item under review: GST fusion of MMSC1 PDZ domain 9 (amino acids 1532-1613) (other, Expressed in E. coli, purified on glutathione-agarose, adsorbed to the ELISA plate; GST is placed N-terminal as in pGEX vectors; also called MMSc1 PDZ 9; PDZ domain number 9; not shown: glutathione S-transferase (GST) encoded by pGEX vectors (Pharmacia)) FPVDLQKKAGRGLGLSIVGKRNGSGVFISDIVKGGAADLDGRLIQGDQILSVNGEDMRNASQETVATILKCAQGLVQLEIGR . Reported log10 A405?
Response: 0.38

Query: For the binder GST fusion of MMSC1 PDZ domain 7 (amino acids 1238-1320) (other, Expressed in E. coli, purified on glutathione-agarose, adsorbed to the ELISA plate; GST is placed N-terminal as in pGEX vectors; also called MMSc1 PDZ 7; PDZ domain number 7; not shown: glutathione S-transferase (GST) encoded by pGEX vectors (Pharmacia)) HIIELEKDKNGLGLSLAGNKDRSRMSIFVVGINPEGPAAADGRMHIGDELLEINNQILYGRSHQNASAIIKTAPSKVKLVFIR , what log10 A405 is on record?
Response: 0.02

Query: Item GST fusion of MMSC1 PDZ domain 3 (amino acids 364-451) (other, Expressed in E. coli, purified on glutathione-agarose, adsorbed to the ELISA plate; GST is placed N-terminal as in pGEX vectors; also called MMSc1 PDZ 3; PDZ domain number 3; not shown: glutathione S-transferase (GST) encoded by pGEX vectors (Pharmacia)) YNVELVRKDGQSLGIRIVGYVGTSHTGEASGIYVKSVIPGSAAYHNGHIQVNDKIVAVDGVNIQGFANHDVVEVLRNAGQVVHLTLVR has what recorded log10 A405?
Response: 0.35

Query: Consider the binder shown here: GST fusion of MMSC1 PDZ domain 5 (amino acids 685-771) (other, Expressed in E. coli, purified on glutathione-agarose, adsorbed to the ELISA plate; GST is placed N-terminal as in pGEX vectors; also called MMSc1 PDZ 5; PDZ domain number 5; not shown: glutathione S-transferase (GST) encoded by pGEX vectors (Pharmacia)) KIVELVKDCKGLGFSILDYQDPLDPTRSVIVIRSLVADGVAERSGGLLPGDRLVSVNEYCLDNTSLAEAVEILKAVPPGLVHLGICK What is its recorded log10 A405?
Response: -1.70
